Record form. Attribute: Ki. Fill in for each entry.
- Assayed System: human vasopressin V1b receptor (Homo sapiens)
- Sequence (P47901 1-424): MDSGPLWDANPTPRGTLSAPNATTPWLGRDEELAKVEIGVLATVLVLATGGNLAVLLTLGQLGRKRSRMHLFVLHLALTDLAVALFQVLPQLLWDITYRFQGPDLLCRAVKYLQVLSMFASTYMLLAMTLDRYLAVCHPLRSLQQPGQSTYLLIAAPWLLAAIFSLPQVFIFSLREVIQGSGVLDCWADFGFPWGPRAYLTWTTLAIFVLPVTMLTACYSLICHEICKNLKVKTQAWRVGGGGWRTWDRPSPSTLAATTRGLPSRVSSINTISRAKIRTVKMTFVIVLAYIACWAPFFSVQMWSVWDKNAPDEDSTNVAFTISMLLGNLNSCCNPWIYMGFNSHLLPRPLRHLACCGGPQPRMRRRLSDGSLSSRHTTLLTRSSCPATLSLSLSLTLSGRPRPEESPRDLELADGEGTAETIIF

For the compound CCOc1ncc(C)cc1C1(NC(=O)N2CCC(N3CCN(C)CC3)CC2)C(=O)N(S(=O)(=O)c2ccc(OC)cc2OC)c2ccc(Cl)cc21.O=C(O)C(F)(F)F (racemic) [Example 16, trifluoroacetic acid salt] , what Ki is on record?
< 1 nM

Next compound: CCOc1ncc(C)cc1C1(NC(=O)N2CCC(N3CCN(CC)CC3)CC2)C(=O)N(S(=O)(=O)c2ccc(OC)cc2OC)c2ccc(Cl)cc21.O=C(O)C(F)(F)F (racemic) [Example 17, trifluoroacetic acid salt]
< 1 nM

* * *

Record form. Attribute: Ki. Fill in for each entry.
- Assayed System: human vasopressin V1b receptor (Homo sapiens)

For the compound CCOc1ncccc1C1(CC(=O)N2CCN(C3CCN(C)CC3)CC2)C(=O)N(S(=O)(=O)c2ccccc2)c2ccc(Cl)cc21.O=C(O)C(F)(F)F (racemic) [Example 29, trifluoroacetic acid salt] , what Ki is on record?
1 to 10 nM

Next compound: CCOc1ncccc1C1(NC(=O)N2CCN(C3CCN(C)CC3)CC2)C(=O)N(S(=O)(=O)c2ccccc2)c2ccc(Cl)cc21.O=C(O)C(F)(F)F (racemic) [Example 3, trifluoroacetic acid salt]
1 to 10 nM

Next compound: CCOc1ncccc1C1(OC(=O)N2CCN(C3CCN(C)CC3)CC2)C(=O)N(S(=O)(=O)c2ccccc2)c2ccc(Cl)cc21.O=C(O)C(F)(F)F (racemic) [Example 24, trifluoroacetic acid salt]
1 to 10 nM

Next compound: CCOc1ncccc1C1(NC(=O)N2CCC(C3CCN(C)CC3)CC2)C(=O)N(S(=O)(=O)c2ccc(OC)cc2OC)c2ccc(Cl)cc21 (racemic) [Example 13]
< 1 nM
